Attribute: TGI
System: OVCAR-8 ovarian
assayNotes: NCI tumour cell line growth inhibition, 48 h

# annotated cases, reported TGI shown
CC/C=C1\N=C(c2ccc(Cl)cc2)OC1=O
> 100 µM
CC1=C2c3c(C)ccc4ccc(C)c(c34)C2(O)C(C)C1=O (centres undefined)
49.4 µM
CCOC(=O)CCC(NC(=O)c1ccc(Oc2nc3ccc(C(F)(F)F)cc3nc2-c2ccccc2)cc1)C(=O)OCC (centres undefined)
> 57.7 µM
Cc1[nH]c(=O)nc(N/N=C/c2ccc(Cl)cc2)c1C(=O)NC(C)(CO)CO
> 100 µM
O=C1/C(=C\c2cccc(Oc3ccccc3)c2)S(=O)(=O)C(c2ccccc2)N1c1ccc(Cl)cc1 (centres undefined)
37.3 µM

State its TGI on OVCAR-8 ovarian: CN(C)c1ccc(N=Cc2c([O-])ccc3ccccc23)cc1.[C-]#[O+].[C-]#[O+].[Ir] > 100 µM

Also CC1(C23CC4CC(CC(C4)C2)C3)n2c(=O)n(-c3ccccc3)c(=O)n2C1(C)C12CC3CC(CC(C3)C1)C2 (centres undefined) ? > 100 µM

---

Test system: NCI-H23 lung
assayNotes: NCI tumour cell line growth inhibition, 48 h
Measured GI50 values are reported for all entries that follow.

NC(CSC(c1ccccc1)(c1ccccc1)c1ccc(Cl)cc1)C(=O)O (stereo not drawn)
0.487 µM

For the next question, use this molecule.
If you can, please state the reported GI50 value of O=C(OCc1ccccc1)N1CCN(/[N+]([O-])=N/Oc2ccc([N+](=O)[O-])cc2[N+](=O)[O-])CC1 . 6.45 µM

---

Tested on: MCF7 breast
assayNotes: NCI tumour cell line growth inhibition, 48 h
readoutType: GI50

COc1ccc(-c2ccc(/C=N/n3c(COc4ccccc4Cl)nn(CN4CCN(C)CC4)c3=S)o2)c([N+](=O)[O-])c1
12.9 µM
CCCCCCCCCCCCCCCCCC1=NCCN1CS(=O)(=O)O
13.4 µM
CC(=O)N1CC(Nc2ccc(OC(F)(F)F)cc2)=CC1=O
0.436 µM

Reported GI50, compound Cc1cccc(Oc2nccc(-c3c(-c4ccc(F)cc4)ncn3C3CCNCC3)n2)c1C : ____ 6.68 µM

---

Known TGI of a selection of compounds
Tested on: SN12C renal
assayNotes: NCI tumour cell line growth inhibition, 48 h

Worked examples follow.
COC1=CC(O)(CC(N)=O)c2ccccc2C1=O (configuration not stated)
> 100 µM
O=C1CN2Cc3cc(N4CCOCC4)ccc3N=C2N1
> 100 µM
ClC1=C(Cl)C(Cl)=C(Cl)C1=C/C=C/c1ccccc1
2.15 µM
COC(=O)c1ccc2c(c1)nc(-c1cc3ccccc3[nH]c1=O)n2-c1cc(C(C)(C)C)[nH]n1
> 100 µM
COC(OC)c1cccc2c1C(=O)CCC1(O)c3ccccc3C1C2 (configuration not stated)
> 100 µM
COc1cc2c(cc1OCCOS(C)(=O)=O)N=C[C@@H]1CCCN1C2=O
> 100 µM

Enter reported TGI observed with SN12C renal for CCCCc1c2c(nc3c1CCCC3O)/C(=C/c1ccccc1)CCC2 (configuration not stated) 62.5 µM

And for COc1cc(-c2oc3c(OC)c(O)c(OC)c(O)c3c(=O)c2OC)cc(O)c1OC ? > 100 µM

---

Test system: HT29 colon
assayNotes: NCI tumour cell line growth inhibition, 48 h
readoutType: TGI

Field: example entries. Status: answers known.
CCOC(=O)CCC(NC(=O)c1ccc(Oc2nc3ccc(C(F)(F)F)cc3nc2-c2ccccc2)cc1)C(=O)OCC (stereo not given)
> 75.2 µM
C/C(=N\NC(=O)c1ccncc1)c1ccc2ccccc2c1O
> 58.6 µM
O=C(CC1(O)C(=O)Nc2ccccc21)c1ccccc1Cl (stereo not given)
> 100 µM

Looking for the measured TGI of COc1cc(C(=O)/C=C/c2cc(C(=O)c3cc(OC)c(OC)c(OC)c3)ccc2OC)ccc1N , can you help? 1.56 µM

Quick one: COC1=CC(=O)[C@H]2[C@H](C)C(c3ccccc3)[C@@]2(C)C1=O (stereo not given in full) > 100 µM

Next compound up: CC1(C)C(=O)C(C)(C)C12SSC1(S2)C(C)(C)C(=O)C1(C)C > 100 µM

Entry C[C@]12CC[C@@H]3c4cc(OCC(F)(F)F)c(O)cc4C(=O)C[C@H]3[C@@H]1CC[C@@H]2O please 38.4 µM

Try this compound too: CC(=O)Nc1ccc(Sc2ccc([N+](=O)[O-])o2)cc1 3.25 µM

# iterate: O=c1[nH]c(=O)n(C2CC(O)C(CO)O2)cc1OCCCc1ccccc1 (stereo not given) > 100 µM

Also need CCCN(CCCC(NC(C)=O)C(=O)NCc1ccccc1)C(=O)NC (stereo not given) , thanks. > 100 µM

---

Parameter: TGI. Scope: all listed entries.
Tested on: KM12 colon
assayNotes: NCI tumour cell line growth inhibition, 48 h

O=S(O)CCCCCSSCCCCSSCCCCCS(=O)O
> 100 µM
Cn1c(=O)cc(NCc2ccc(Cl)cc2)[nH]c1=O
> 100 µM
CCCCCCCCCCCCCCCCCC1=NCCN1CS(=O)(=O)O
8.49 µM

Param readout= TGI; system= KM12 colon; entry= COc1ccc(C(O)/C(=N\NC(N)=S)c2nc3ccc([N+](=O)[O-])cc3[nH]c2=O)cc1OC (configuration not stated) ; returns value. > 100 µM

Now the compound Cc1cccc2c1Oc1cc(Cl)ccc1C2NC(=O)CCN1CCN(CCO)CC1 (configuration not stated) 11.5 µM

Try the compound CCCCCNc1nonc1N > 100 µM

Also check COc1ccc(N=C(C)c2ccncc2)cc1 > 100 µM

---

Test system: SF-539 CNS
assayNotes: NCI tumour cell line growth inhibition, 48 h
Attribute: TGI

Below are worked cases with known answers.
COc1cc(C2C(Cl)C(=O)N2NC(=O)c2ccccc2O)ccc1O (stereo unspecified)
> 100 µM
Cc1cc2cc3cc(C)c(N(C)C)cc3nc2cc1N(C)C
12.7 µM
COc1cc(-c2oc3c(OC)c(O)c(OC)c(O)c3c(=O)c2OC)cc(O)c1OC
45.4 µM
CCOC(=O)CCC(NC(=O)c1ccc(Oc2nc3ccc(C(F)(F)F)cc3nc2-c2ccccc2)cc1)C(=O)OCC (stereo unspecified)
> 34.3 µM
CC(OC(=O)NCn1cc(-c2ccccc2)nn1)c1ccccc1 (stereo unspecified)
> 100 µM

I am curious: what TGI value has been reported for CCCCCCCCCCCCCCCCCC1=NCCN1CS(=O)(=O)O ? 46.8 µM

How about COc1ccc(N2C(=O)C3ON(C(C(N)=O)c4ccccc4)C(c4ccc(-c5ccccc5)cc4)C3C2=O)cc1 (stereo unspecified) ? > 50 µM

Again, but for C[C@H](Nc1c(O)c2c(c(O)c1Cl)C(=O)C=CC2=O)C(=O)Nc1ccc([N+](=O)[O-])cc1 4.2 µM

Same for OCCCN=NNc1ccc(-c2nc3ccccc3[nH]2)cc1 28.4 µM

Now consider O=C(O)C1C(C(=O)Nc2ccc3c(c2)Cc2ccccc2-3)C2(Cl)C(Cl)=C(Cl)C1(Cl)C2(Cl)Cl (stereo unspecified) and answer again. 28.9 µM

What would you report for O=[N+]([O-])c1cccc2nc3ccccc3c(NCCc3cccc[n+]3[O-])c12 ? 0.194 µM

---

Test system: U251 CNS
assayNotes: NCI tumour cell line growth inhibition, 48 h
readoutType: TGI (µM)
I only need the number, in µM, no unit after it.

Consider the reported TGI for these molecules:
O=C1NC(Cc2c[nH]c3ccccc23)C(=O)N2C(C3CCCCC3)c3[nH]c4ccccc4c3C[C@@H]12 (stereo not given in full)
26
O=C(NNC(=S)Nc1ccccc1)c1ccccc1Nc1ccccc1C(=O)NNC(=S)Nc1ccccc1
50.7
CC(C)(C)c1ccc(-c2nc3ccc([N+](=O)[O-])cc3c(=O)o2)cc1
43.4

Now look at this one.
What value of measured TGI is listed for O=C/C(=C(/Br)I)c1ccccc1 ? 13.7

---

Tested on: OVCAR-4 ovarian
assayNotes: NCI tumour cell line growth inhibition, 48 h; in the data active = GI50 below about 0.43 µM; inactive = the rest
API: response.call in active, inactive

These recorded examples may help you get a feel for the data.
COCC1CCCN1c1ccc(/C=C(/C#N)C(N)=S)cc1 (centres undefined)
inactive
OCCCN=NNc1ccc(-c2nc3ccccc3[nH]2)cc1
inactive
CCCCCCCC/C=C/CCCCCCCCC1=NCCN1CCO
inactive
COc1ccc(C(=O)c2ccc(OC)c(OC)c2OC)cc1
inactive
CCN(CC)c1cc(/C=C/c2ccc(OC)c(OC)c2)nc2cc(F)c(F)cc12
inactive

Tell me the assay call for CN1CCCNc2c(c(=O)c2=O)NCCCN(C)CCCNc2c(c(=O)c2=O)NCCCN(C)CCCNc2c(c(=O)c2=O)NCCCN(C)CCCNc2c(c(=O)c2=O)NCCCN(C)CCCNc2c(c(=O)c2=O)NCCCN(C)CCCNc2c(c(=O)c2=O)NCCCN(C)CCCNc2c(c(=O)c2=O)NCCC1 please. inactive

Request: COC(=O)c1ccc2c(c1)nc(-c1cc3ccccc3[nH]c1=O)n2-c1cc(C(C)(C)C)[nH]n1 inactive

Please do the same for COc1cc(NCCCCN=C(N)NC(N)=NC(C)C)c2ncccc2c1 as well. active

How about N#Cc1c(-c2ccc(Cl)cc2)n(O)c2ccccc12 ? inactive

All values here come from PubChem BioAssay (NCI).
